target: terminal deoxyribonucleotidyl transferase (TdT) (Bos taurus, UniProt P06526); construct: classical preparation may be proteolysed two-subunit form of one gene product; test: TdT assay (3H-dGMP incorporation) with purified TdT; format: biochemical, calf; conditions: 200 μM compound; 35° C., 1 hour, 10 μM 3H-dGTP; DMSO only control 12,131
Sequence (P06526 whole entry): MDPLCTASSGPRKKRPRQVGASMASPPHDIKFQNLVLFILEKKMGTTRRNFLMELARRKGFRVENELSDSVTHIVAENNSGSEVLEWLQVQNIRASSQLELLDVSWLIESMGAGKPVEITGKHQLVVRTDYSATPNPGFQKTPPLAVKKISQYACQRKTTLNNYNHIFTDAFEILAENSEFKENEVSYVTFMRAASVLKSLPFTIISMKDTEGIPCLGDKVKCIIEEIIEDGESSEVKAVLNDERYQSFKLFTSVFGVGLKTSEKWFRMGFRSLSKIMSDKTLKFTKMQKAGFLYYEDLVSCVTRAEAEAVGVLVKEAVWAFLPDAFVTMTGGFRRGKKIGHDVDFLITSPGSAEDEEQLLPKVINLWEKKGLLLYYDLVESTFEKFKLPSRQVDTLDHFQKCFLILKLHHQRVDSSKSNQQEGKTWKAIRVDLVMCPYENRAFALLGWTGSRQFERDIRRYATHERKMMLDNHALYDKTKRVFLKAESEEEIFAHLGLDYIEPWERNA
Item-by-item account of CMP 3H--dGMP inc.

Nc1ccc(Nc2cc(=O)[nH]c(=O)[nH]2)cc1 [GW-18C, 6-(p-aminoanilo)uracil]: 5,198 CMP
CC(=O)Nc1ccc(CNc2cc(=O)[nH]c(=O)[nH]2)cc1 [GW-16C, 6-(p-acetamidobenzylamino)uracil]: 14,160 CMP
O=c1cc(NCc2ccccc2)[nH]c(=O)[nH]1: 12,780 CMP
CCCCCNc1cc(=O)[nH]c(=O)[nH]1 [GW-18E, 6-(n-pentylamino)uracil]: 11,674 CMP
CCCCc1ccc(Nc2cc(=O)[nH]c(=O)[nH]2)cc1 [GW-11D, 6-(p-butylanilino)uracil]: 10,925 CMP

Switching to the query record.
Asked: # return recorded CMP 3H--dGMP inc. for input O=c1cc(Nc2ccc(O)cc2)[nH]c(=O)[nH]1 [GW-22E, 6-(p-hydroxyanilino)uracil]
Given back: 21,760 CMP

All figures here come from patent US4576948A.
